Origin of the recorded values: the supplement of paper PMC5998384

For each entry below, report its solubility change mitosis (log2) value.
- Test system: HeLa Kyoto
- protocol: solubility change mitosis vs G1/S (difference of NP-40 vs SDS log2 ratios) (log2 ratio difference); higher = more soluble in mitosis
Numbers only.

>>> val("MWGACKVKVHDSLATISITLRRYLRLGATMAKSKFEYVRDFEADDTCLAHCWVVVRLDGRNFHRFAEKHNFAKPNDSRALQLMTKCAQTVMEELEDIVIAYGQSDEYSFVFKRKTNWFKRRASKFMTHVASQFASSYVFYWRDYFEDQPLLYPPGFDGRVVVYPSNQTLKDYLSWRQADCHINNLYNTVFWALIQQSGLTPVQAQGRLQGTLAADKNEILFSEFNINYNNELPMYRKGTVLIWQKVDEVMTKEIKLPTEMEGKKMAVTRTRTKPVPLHCDIIGDAFWKEHPEILDEDS [THG1L]")
-0.0698
>>> val("MALPIIVKWGGQEYSVTTLSEDDTVLDLKQFLKTLTGVLPERQKLLGLKVKGKPAENDVKLGALKLKPNTKIMMMGTREESLEDVLGPPPDNDDVVNDFDIEDEVVEVENREENLLKISRRVKEYKVEILNPPREGKKLLVLDVDYTLFDHRSCAETGVELMRPYLHEFLTSAYEDYDIVIWSATNMKWIEAKMKELGVSTNANYKITFMLDSAAMITVHTPRRGLIDVKPLGVIWGKFSEFYSKKNTIMFDDIGRNFLMNPQNGLKIRPFMKAHLNRDKDKELLKLTQYLKEIAKLDDFLDLNHKYWERYLSKKQGQ [UBLCP1]")
-0.142

Now look at this one.
Req: Give the reported solubility change mitosis (log2) for MTTLDDKLLGEKLQYYYSSSEDEDSDHEDKDRGRCAPASSSVPAEAELAGEGISVNTGPKGVINDWRRFKQLETEQREEQCREMERLIKKLSMTCRSHLDEEEEQQKQKDLQEKISGKMTLKEFAIMNEDQDDEEFLQQYRKQRMEEMRQQLHKGPQFKQVFEISSGEGFLDMIDKEQKSIVIMVHIYEDGIPGTEAMNGCMICLAAEYPAVKFCKVKSSVIGASSQFTRNALPALLIYKGGELIGNFVRVTDQLGDDFFAVDLEAFLQEFGLLPEKEVLVLTSVRNSATCHSEDSDLEID [PDCL] (system: HeLa Kyoto).
Resp: 0.0999

---

- Tested on: HeLa Kyoto
- protocol: thermal stability score vs G1/S (z-score of summed log2 fold changes over temperatures); higher = more thermally stable than in G1/S
- experimental.context: cell cycle stage: mitosis
For each entry below, report its thermal stability score value.
Numbers only.

In the examples that follow, each entry is paired with its recorded thermal stability score.
>>> val("METVISSDSSPAVENEHPQETPESNNSVYTSFMKSHRCYDLIPTSSKLVVFDTSLQVKKAFFALVTNGVRAAPLWDSKKQSFVGMLTITDFINILHRYYKSALVQIYELEEHKIETWREVYLQDSFKPLVCISPNASLFDAVSSLIRNKIHRLPVIDPESGNTLYILTHKRILKFLKLFITEFPKPEFMSKSLEELQIGTYANIAMVRTTTPVYVALGIFVQHRVSALPVVDEKGRVVDIYSKFDVINLAAEKTYNNLDVSVTKALQHRSHYFEGVLKCYLHETLETIINRLVEAEVHRLVVVDENDVVKGIVSLSDILQALVLTGGEKKP [PRKAG1]")
1.52
>>> val("MAAPGSCALWSYCGRGWSRAMRGCQLLGLRSSWPGDLLSARLLSQEKRAAETHFGFETVSEEEKGGKVYQVFESVAKKYDVMNDMMSLGIHRVWKDLLLWKMHPLPGTQLLDVAGGTGDIAFRFLNYVQSQHQRKQKRQLRAQQNLSWEEIAKEYQNEEDSLGGSRVVVCDINKEMLKVGKQKALAQGYRAGLAWVLGDAEELPFDDDKFDIYTIAFGIRNVTHIDQALQEAHRVLKPGGRFLCLEFSQVNNPLISRLYDLYSFQVIPVLGEVIAGDWKSYQYLVESIRRFPSQEEFKDMIEDAGFHKVTYESLTSGIVAIHSGFKL [COQ5]")
-0.586

Now look at this one.
Req: Give the reported thermal stability score for MNPSMKQKQEEIKENIKNSSVPRRTLKMIQPSASGSLVGRENELSAGLSKRKHRNDHLTSTTSSPGVIVPESSENKNLGGVTQESFDLMIKENPSSQYWKEVAEKRRKALYEALKENEKLHKEIEQKDNEIARLKKENKELAEVAEHVQYMAELIERLNGEPLDNFESLDNQEFDSEEETVEDSLVEDSEIGTCAEGTVSSSTDAKPCI [GMNN] (system: HeLa Kyoto).
Resp: -7.77
